Measured IC50 (nM), efferocytosis by human macrophages, Donor A values are reported for all entries that follow.
- TARGET_DESC: T1, human MerTK on human macrophages (human, UniProt Q12866 21-999)
- T1 sequence: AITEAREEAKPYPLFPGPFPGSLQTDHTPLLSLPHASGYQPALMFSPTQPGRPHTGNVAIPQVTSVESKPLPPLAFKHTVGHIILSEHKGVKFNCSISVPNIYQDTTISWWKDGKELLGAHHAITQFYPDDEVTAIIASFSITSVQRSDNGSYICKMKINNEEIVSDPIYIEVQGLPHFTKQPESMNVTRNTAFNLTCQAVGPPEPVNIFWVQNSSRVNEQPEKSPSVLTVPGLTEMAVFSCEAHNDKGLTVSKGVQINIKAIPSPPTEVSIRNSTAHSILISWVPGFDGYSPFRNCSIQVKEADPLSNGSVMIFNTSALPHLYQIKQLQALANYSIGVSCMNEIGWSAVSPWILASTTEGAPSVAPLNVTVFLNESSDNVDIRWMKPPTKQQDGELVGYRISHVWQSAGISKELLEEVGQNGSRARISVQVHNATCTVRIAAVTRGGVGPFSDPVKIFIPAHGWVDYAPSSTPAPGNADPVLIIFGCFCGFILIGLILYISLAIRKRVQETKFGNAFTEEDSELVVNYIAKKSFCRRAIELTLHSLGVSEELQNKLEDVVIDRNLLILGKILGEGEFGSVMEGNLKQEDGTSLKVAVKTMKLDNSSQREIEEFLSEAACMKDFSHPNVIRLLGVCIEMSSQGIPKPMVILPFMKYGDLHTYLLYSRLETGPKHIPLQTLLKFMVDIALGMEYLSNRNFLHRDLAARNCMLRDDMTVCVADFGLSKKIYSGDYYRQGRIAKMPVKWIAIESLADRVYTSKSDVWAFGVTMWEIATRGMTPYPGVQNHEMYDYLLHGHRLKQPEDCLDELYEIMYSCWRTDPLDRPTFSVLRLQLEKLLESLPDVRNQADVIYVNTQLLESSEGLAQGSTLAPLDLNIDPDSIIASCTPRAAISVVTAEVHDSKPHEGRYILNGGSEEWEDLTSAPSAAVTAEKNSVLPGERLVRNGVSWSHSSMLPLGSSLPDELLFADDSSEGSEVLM
- PROTOCOL_DESCRIPTION: cell-based or functional assay
Report the value in nM with no unit label.

Past entries and their recorded results:
| BINDER | UNIT_STRING | EXPERIMENTAL_RESULT |
| --- | --- | --- |
| h10C3.v14 (antibody, V domains shown, Humanized, human IgG1; also called 10C3 Humanized polished mAb) VH: EVQLVESGGGLVQPGGSLRLSCAASGFSLSGYTMGWVRQAPGKGLEYIGVISSGGTTYYTNWAKGRFTISKDNSKNTLYLQMGSLRAEDMAVYYCARVAFTAYGGGGFPTLHRLDLWGQGTLVTVSS VL: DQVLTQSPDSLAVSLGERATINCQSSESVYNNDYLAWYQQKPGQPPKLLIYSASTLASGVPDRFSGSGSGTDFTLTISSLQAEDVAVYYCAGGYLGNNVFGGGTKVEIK | nM | 0.52 |
| h9E3.FN.v16 (antibody, V domains shown, Humanized, human IgG1; also called 9E3.FN Humanized polished mAb) VH: EVQLVESGGGLIQPGGSLRLSCAASGFSLSSNAMSWVRQAPGKGLEWVSIISSSGSTYSASWAKGRFTISKDNSKNTLYLQMNSLRAEDTAVYYCARVGFFVGYGAYDYGIIHRLDLWGQGTLVTVSS VL: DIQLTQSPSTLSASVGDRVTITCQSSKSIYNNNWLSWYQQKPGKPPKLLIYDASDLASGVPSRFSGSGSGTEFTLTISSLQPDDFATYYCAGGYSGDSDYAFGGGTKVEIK | nM | 0.59 |
| h13B4.v16 (antibody, V domains shown, Humanized, human IgG1; also called 13B4 Fully Humanized; 13B4 Humanized polished mAb) VH: EVQLVESGEGLVQPGGSLRLSCAASGFSLSSYAMGWVRQAPGKGLEYVGIINSYGNTYYANWAKGRFTISRDNSKNTVYLQMGSLRAEDMAVYYCARDPGVSSNLWGRGTLVTVSS VL: DIQMTQSPSTLSASVGDRVTITCQASQNIYSGLAWYQQKPGKAPKLLIYGASKLASGVPSRFSGSGSGTEFTLTISSLQPDDFATYYCQATYYSSNSVAFGGGTKVEIK | nM | 0.07 |

The binder listed as h10F7.v16 (antibody, V domains shown, Humanized, human IgG1; also called 10F7 Fully Humanized; 10F7 Humanized polished mAb) VH: EVQLVESGGGLVQPGGSLRLSCAVSGFSLSGYAMSWVRQAPGKGLEYIGVISSSGSSYYPSWAKGRFTISKDNSKNTLYLQMGSLRAEDMAVYYCARVQFYVGYAVYGYGIIDRLDLWGQGTLVTVSS VL: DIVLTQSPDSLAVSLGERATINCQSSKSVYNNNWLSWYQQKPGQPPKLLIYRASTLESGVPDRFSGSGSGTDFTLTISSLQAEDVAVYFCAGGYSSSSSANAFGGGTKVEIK has a reported IC50 (nM), efferocytosis by human macrophages, Donor A of 0.42
